# IC50 values compiled below
# assayed_system: human full length PIK3KA Wild-type (p110α/p85α complex) (Homo sapiens)
# Construct: Recombinant, catalytically active human full length PIK3KA Wild-type and H1047R mutant were purchased as 1:1 complex; 6xHis (N); purchased EMD Millipore Sigma 14-602M
# test_name: PI3K-alpha kinase (PIK3CA) biochemical activity, wild-type, ADP-Glo
# details: PI3K-α (PIK3CA) biochemical, Soy PI lipid substrate
assay_endpoint: IC50

In [3]: df
Out[3]:
                                   molecule                            assayed_system  assay_endpoint  recorded_value
0  Cc1c(-c2ccccc2F)oc2c([C@@H](C)Nc3ccc(Cl)nc3C(=O)O)cc(C(F)(F)F)cc2c1=O [Example 98]  human full length PIK3KA Wild-type (p110α/p85α complex) (Homo sapiens)            IC50       1 to 5 µM
1  Cc1cc(C(C)Nc2cccc(F)c2C(=O)O)c2oc(-c3ccccc3F)cc(=O)c2c1 (stereo not shown) [Example 97]  human full length PIK3KA Wild-type (p110α/p85α complex) (Homo sapiens)            IC50       1 to 5 µM
2  Cc1cc([C@@H](C)Nc2ccccc2C(=O)O)c2oc(-c3ccc(F)c(F)c3)cc(=O)c2c1 [Example 63]  human full length PIK3KA Wild-type (p110α/p85α complex) (Homo sapiens)            IC50       1 to 5 µM
3  Cc1cc([C@@H](C)Nc2cccnc2C(=O)O)c2oc(-c3ccc(F)c(F)c3)c(C)c(=O)c2c1 [Example 120]  human full length PIK3KA Wild-type (p110α/p85α complex) (Homo sapiens)            IC50         > 10 µM
4  Cc1cc(C(C)Nc2cccc(F)c2C(=O)O)c2oc(-c3ccccc3F)cc(=O)c2c1 (single isomer, unassigned; isomer 2) [Example 108]  human full length PIK3KA Wild-type (p110α/p85α complex) (Homo sapiens)            IC50         > 10 µM
5  Cc1cc(C(C)Nc2ccccc2C(=O)O)c2oc(-c3ccc(N4CCCC4)cc3)cc(=O)c2c1 (single isomer, unassigned; isomer 1) [Example 54]  human full length PIK3KA Wild-type (p110α/p85α complex) (Homo sapiens)            IC50         > 10 µM
6  Cc1cc(C(C)Nc2cccnc2C(=O)O)c2oc(-c3ccccc3F)c(C)c(=O)c2c1 (stereo not shown) [Example 93]  human full length PIK3KA Wild-type (p110α/p85α complex) (Homo sapiens)            IC50         > 10 µM

----------
IC50 overview
# assayed_system: human full length PIK3KA Wild-type (p110α/p85α complex) (Homo sapiens, UniProt P42336)
# Construct: Recombinant, catalytically active human full length PIK3KA Wild-type and H1047R mutant were purchased as 1:1 complex; 6xHis (N); purchased EMD Millipore Sigma 14-602M
# test_name: PI3K-alpha kinase (PIK3CA) biochemical activity, wild-type, ADP-Glo
# details: PI3K-α (PIK3CA) biochemical, Soy PI lipid substrate
# Source text: PI3K-Alpha Kinase (PIK3CA) Activity, Wild-Type and H1047R Mutant and Determining IC50 Values for Inhibitors Recombinant, catalytically active human full length PIK3KA Wild-type and H1047R mutant were purchased as 1:1 complex of N-terminal 6× his tagged p110α (catalytic) and untagged p85α (regulatory subunit) from EMD Millipore Sigma (cat. no. 14-602M and 14-792M, respectively). […]
assay_endpoint: IC50

In [3]: df
Out[3]:
                                   compound                            assayed_system  assay_endpoint  recorded_value
0  CNC(=O)c1ccc(-c2oc3c([C@@H](C)Nc4ccccc4C(=O)O)cc(C)cc3c(=O)c2C)cc1 [Example 151]  human full length PIK3KA Wild-type (p110α/p85α complex) (Homo sapiens, UniProt P42336)            IC50       1 to 5 µM
1  Cc1cc([C@@H](C)Nc2ccc(C)nc2C(=O)O)c2oc(-c3ccccc3F)c(C)c(=O)c2c1 [Example 148]  human full length PIK3KA Wild-type (p110α/p85α complex) (Homo sapiens, UniProt P42336)            IC50      5 to 10 µM
2  Cc1cc(C(C)Nc2ccccc2C(=O)O)c2oc(-c3cccc(C(C)(C)C#N)c3)cc(=O)c2c1 (single isomer, unassigned; isomer 2) [Example 5]  human full length PIK3KA Wild-type (p110α/p85α complex) (Homo sapiens, UniProt P42336)            IC50         > 10 µM
3  Cc1cc([C@@H](C)Nc2ccccc2C(=O)O)c2oc(-c3cccc(C(C)(C)C#N)c3)c(C)c(=O)c2c1 [Example 117]  human full length PIK3KA Wild-type (p110α/p85α complex) (Homo sapiens, UniProt P42336)            IC50       1 to 5 µM
4  Cc1cc([C@@H](C)Nc2ccccc2C(=O)O)c2oc(-c3ccccc3)c(C3COC3)c(=O)c2c1 [Example 112]  human full length PIK3KA Wild-type (p110α/p85α complex) (Homo sapiens, UniProt P42336)            IC50       1 to 5 µM
5  Cc1cc(C(C)Nc2ccccc2C(=O)O)c2oc(-c3ccc(S(C)(=O)=O)cc3)cc(=O)c2c1 (single isomer, unassigned; isomer 2) [Example 48]  human full length PIK3KA Wild-type (p110α/p85α complex) (Homo sapiens, UniProt P42336)            IC50         > 10 µM
6  Cc1cc([C@@H](C)Nc2c(Cl)ccc(F)c2C(=O)O)c2oc(-c3ccccc3)c(C)c(=O)c2c1 [Example 65]  human full length PIK3KA Wild-type (p110α/p85α complex) (Homo sapiens, UniProt P42336)            IC50         > 10 µM

----------
# assayed_system: human full length PIK3KA Wild-type (p110α/p85α complex) (Homo sapiens)
# Construct: Recombinant, catalytically active human full length PIK3KA Wild-type and H1047R mutant were purchased as 1:1 complex; 6xHis (N); purchased EMD Millipore Sigma 14-602M
# test_name: PI3K-alpha kinase (PIK3CA) biochemical activity, wild-type, ADP-Glo
# details: PI3K-α (PIK3CA) biochemical, Soy PI lipid substrate
pIC50: −log10 of the molar value.
pIC50 values, listed per item
assay_endpoint: pIC50

>>> print(df.to_string())
                                   compound  assay_endpoint  recorded_value
0  COc1ccc(NC(C)c2cc(C)cc3c(=O)c(C)c(-c4ccccc4)oc23)c(C(=O)O)n1 (stereo not shown) [Example 89]           pIC50    5.30 to 6.00
1  COC(=O)c1cccc(-c2oc3c([C@@H](C)Nc4ccccc4C(=O)O)cc(C)cc3c(=O)c2C)c1 [Example 150]           pIC50    5.30 to 6.00
2  CNC(=O)c1cccc(-c2oc3c([C@@H](C)Nc4ccccc4C(=O)O)cc(C)cc3c(=O)c2C)c1 [Example 152]           pIC50          < 5.00
3  Cc1cc([C@@H](C)Nc2cccnc2C(=O)O)c2oc(-c3ccccc3F)c(C)c(=O)c2c1 [Example 142]           pIC50          < 5.00
4  Cc1cc([C@@H](C)Nc2ccc(Br)nc2C(=O)O)c2oc(-c3ccccc3)c(C)c(=O)c2c1 [Example 35]           pIC50    5.30 to 6.00
5  COc1ccc(NC(C)c2cc(C)cc3c(=O)c(C)c(-c4ccccc4)oc23)c(C(=O)O)n1 (single isomer, unassigned; isomer 1) [Example 109]           pIC50    6.00 to 6.30
6  C[C@@H](Nc1ccc(Cl)nc1C(=O)O)c1cc(C(F)(F)F)cc2c(=O)cc(-c3ccccc3)oc12 [Example 82]           pIC50    5.30 to 6.00

----------
# assayed_system: human full length PIK3KA H1047R mutant (p110α/p85α complex) (Homo sapiens, UniProt P42336, H1047R)
# Construct: Recombinant, catalytically active human full length PIK3KA Wild-type and H1047R mutant were purchased as 1:1 complex; 6xHis (N); purchased EMD Millipore Sigma 14-792M
# Sequence (P42336 whole entry H1047R): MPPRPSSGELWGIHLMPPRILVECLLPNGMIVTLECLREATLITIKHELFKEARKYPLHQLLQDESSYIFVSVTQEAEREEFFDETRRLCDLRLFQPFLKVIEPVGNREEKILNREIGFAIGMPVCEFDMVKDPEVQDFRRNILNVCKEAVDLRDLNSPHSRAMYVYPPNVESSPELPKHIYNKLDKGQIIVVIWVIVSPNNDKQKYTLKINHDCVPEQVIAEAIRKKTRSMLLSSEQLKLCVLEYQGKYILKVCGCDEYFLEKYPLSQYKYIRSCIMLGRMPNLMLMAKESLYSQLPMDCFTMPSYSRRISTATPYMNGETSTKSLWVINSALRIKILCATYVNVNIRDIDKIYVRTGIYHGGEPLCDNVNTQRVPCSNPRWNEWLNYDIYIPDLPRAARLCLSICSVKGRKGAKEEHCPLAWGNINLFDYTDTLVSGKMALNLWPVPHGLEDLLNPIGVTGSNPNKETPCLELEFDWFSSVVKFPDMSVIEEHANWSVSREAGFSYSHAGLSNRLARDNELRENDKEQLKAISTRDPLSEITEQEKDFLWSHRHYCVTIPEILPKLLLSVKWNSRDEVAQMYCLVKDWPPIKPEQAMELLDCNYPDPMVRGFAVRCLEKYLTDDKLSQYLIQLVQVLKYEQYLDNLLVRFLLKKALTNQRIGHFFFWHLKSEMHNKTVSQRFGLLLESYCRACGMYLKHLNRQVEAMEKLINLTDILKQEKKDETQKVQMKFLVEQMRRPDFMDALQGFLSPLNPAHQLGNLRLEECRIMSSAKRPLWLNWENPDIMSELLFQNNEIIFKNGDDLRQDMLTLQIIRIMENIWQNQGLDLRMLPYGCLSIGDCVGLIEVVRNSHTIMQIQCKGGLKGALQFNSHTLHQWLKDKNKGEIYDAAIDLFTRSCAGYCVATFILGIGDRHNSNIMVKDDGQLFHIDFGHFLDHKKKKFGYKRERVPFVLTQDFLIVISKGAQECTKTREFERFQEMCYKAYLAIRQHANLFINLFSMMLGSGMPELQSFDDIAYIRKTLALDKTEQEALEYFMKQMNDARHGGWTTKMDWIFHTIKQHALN
# Sequence (P27986 whole entry partner): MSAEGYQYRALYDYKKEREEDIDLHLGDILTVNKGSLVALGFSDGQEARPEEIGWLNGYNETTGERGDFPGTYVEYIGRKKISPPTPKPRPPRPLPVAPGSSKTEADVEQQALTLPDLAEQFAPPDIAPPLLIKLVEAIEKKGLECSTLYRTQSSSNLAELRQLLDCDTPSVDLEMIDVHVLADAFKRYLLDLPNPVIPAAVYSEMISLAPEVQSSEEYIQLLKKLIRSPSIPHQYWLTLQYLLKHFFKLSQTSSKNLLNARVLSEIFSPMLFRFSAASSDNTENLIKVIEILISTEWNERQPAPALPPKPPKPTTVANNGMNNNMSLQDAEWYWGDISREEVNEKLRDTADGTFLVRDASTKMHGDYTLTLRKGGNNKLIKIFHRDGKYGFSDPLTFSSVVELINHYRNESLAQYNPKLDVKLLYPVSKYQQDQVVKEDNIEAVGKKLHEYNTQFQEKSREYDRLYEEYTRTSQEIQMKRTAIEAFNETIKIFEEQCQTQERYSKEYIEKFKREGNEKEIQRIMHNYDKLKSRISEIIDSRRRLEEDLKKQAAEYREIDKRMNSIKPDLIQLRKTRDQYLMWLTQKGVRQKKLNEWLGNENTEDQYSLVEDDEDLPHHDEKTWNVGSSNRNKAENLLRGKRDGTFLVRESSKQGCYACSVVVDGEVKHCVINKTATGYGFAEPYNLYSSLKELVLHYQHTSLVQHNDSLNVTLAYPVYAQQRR
# test_name: PI3K-alpha kinase (PIK3CA) biochemical activity, H1047R mutant, ADP-Glo
# details: PI3K-α (PIK3CA) biochemical, H1047R mutant, Soy PI lipid substrate
assay_endpoint: IC50

>>> df
                                    compound  recorded_value
 0  Cc1cc([C@@H](C)Nc2ccccc2C(=O)O)c2oc(-c3ccc(C#N)cc3F)cc(=O)c2c1        < 500 nM
 1  Cc1cc(C(C)Nc2ccccc2C(=O)O)c2oc(-c3ccccc3)c(F)c(=O)c2c1 (single isomer, unassigned; isomer 2) [Example 133]        < 500 nM
 2  Cc1cc([C@@H](C)Nc2ccccc2C(=O)O)c2oc(-c3ccc(C#N)c(F)c3)cc(=O)c2c1        < 500 nM
 3  Cc1c(-c2ccccc2)oc2c([C@@H](C)Nc3ccccc3C(=O)O)cc(F)cc2c1=O [Example 84]        < 500 nM
 4  CC(Nc1ccccc1C(=O)O)c1cc(C(F)(F)F)cc2c(=O)cc(-c3ccccc3)oc12 (single isomer, unassigned; isomer 2) [Example 87]        < 500 nM
 5  Cc1cc([C@@H](C)Nc2ccccc2C(=O)O)c2oc(-c3ccccc3C#N)cc(=O)c2c1        < 500 nM
 6  Cc1c(-c2ccccc2)oc2c([C@@H](C)Nc3ccccc3C(=O)O)cc(C(F)(F)F)cc2c1=O        < 500 nM
 7  Cc1cc([C@@H](C)Nc2ccc(Cl)c(F)c2C(=O)O)c2oc(-c3ccccc3)c(C)c(=O)c2c1        < 500 nM
 8  CNC(=O)c1ccc(-c2oc3c([C@@H](C)Nc4ccccc4C(=O)O)cc(C)cc3c(=O)c2C)cc1        < 500 nM
 9  Cc1cc([C@@H](C)Nc2c(Cl)ccc(F)c2C(=O)O)c2oc(-c3ccccc3)c(C)c(=O)c2c1      > 10000 nM
10  C[C@@H](Nc1ccccc1C(=O)O)c1cc(F)cc2c(=O)cc(-c3cccc(C(F)F)c3)oc12        < 500 nM
11  Cc1cc(C(C)Nc2ccccc2C(=O)O)c2oc(-c3ccc(C(=O)N(C)C)cc3)cc(=O)c2c1 (stereo not drawn) [Example 8]        < 500 nM
12  Cc1cc([C@@H](C)Nc2ccc(C)nc2C(=O)O)c2oc(-c3cccc(F)c3)c(C)c(=O)c2c1        < 500 nM
13  Cc1cc([C@@H](C)Nc2ccccc2C(=O)O)c2oc(-c3ccc(F)cc3)c(C)c(=O)c2c1        < 500 nM
14  Cc1cc([C@@H](C)Nc2ccc(C(F)(F)F)nc2C(=O)O)c2oc(-c3ccc(F)c(F)c3)c(C)c(=O)c2c1        < 500 nM
